B1: Azoarcus group I ribozyme (parent)
chain: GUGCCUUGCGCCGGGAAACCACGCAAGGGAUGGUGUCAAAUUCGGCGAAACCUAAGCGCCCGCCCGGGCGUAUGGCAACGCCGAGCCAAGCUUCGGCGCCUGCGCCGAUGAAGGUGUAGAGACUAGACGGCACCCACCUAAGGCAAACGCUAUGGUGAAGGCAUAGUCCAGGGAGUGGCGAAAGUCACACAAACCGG

Variants of: B1
Experiment: reverse-splicing fitness (ratio to wild type); higher = more active; in vitro selection; Mg2+ level not given
Use yes (1) when the recorded reverse-splicing fitness is no lower than 0.009; use no (0) when it is lower.

Examples with answers:
>  <Variant Label>
A111C A120U C169A U176A

>  <Class>
no (0)

$$$$
>  <Variant Label>
A111C A145U C150G U176G

>  <Class>
yes (1)

$$$$
>  <Variant Label>
A120G C150G U176A

>  <Class>
yes (1)

$$$$
>  <Variant Label>
A111U A120U A145C C150G C169A

>  <Class>
no (0)

$$$$

Quick check, reverse-splicing fitness >= 0.009? A145G C150U C169G U176A yes (1)

Input A120G C169U yes (1)

Another variant: C82G A111C A120C A145G C169G U176G no (0)

Param item: C82G A111C A120C A145C C169A U176A yes (1)

// repeat for C82A A111C A120G A145U U176A and report yes (1)

Do the same for C82G A120U A145U C150G C169G U176A please no (0)

Quick one: A111U A145C C150U C169U U176A yes (1)

# repeat for A111G A145C C169A yes (1)

Consider next the variant C82G A111G C150U C169A U176A in the same way. yes (1)

Would you kindly repeat that for C82U A111C C150U C169U U176C ? yes (1)

Another variant to look at: C82A A120G C150A C169U U176A yes (1)

// repeat for A111U A120U C169G and report yes (1)

Try the variant C82G A111G A145C C150G C169U U176G no (0)

Do the same for C82A A111C A145C C169U U176G please no (0)

How about this variant: A111U A120C A145U C169U U176C yes (1)

Can you handle C82A A111U A120G A145C C169G U176C next? yes (1)

How about this variant: C82A A111U A120G C150U yes (1)

Same lookup for C82U A120G A145G C150U , please. yes (1)

Also need C82U A111G A120C A145G C150U C169G , thanks. yes (1)

Query C82U A120U A145C C169U U176A next no (0)

Now the variant C82U A111G A120U A145C C150G C169G no (0)

Another variant to look at: C82U A111C A120G A145G C150A U176A yes (1)

// same read-out, input: A111C A120U A145U C169U U176A yes (1)

Now give it for A111U A120C A145G C150A U176C too. yes (1)
